Test system: ATP;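 also: ATP exposure 15 min at 22 °C before imaging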
Measurement Protocol: switch fluorescence ratio, 500 uM ATP over buffer (Cy3 cluster intensity, sum of 5 cycles each) (fold (ratio)); higher = stronger signal-on switching upon ATP binding; sequences stand for … in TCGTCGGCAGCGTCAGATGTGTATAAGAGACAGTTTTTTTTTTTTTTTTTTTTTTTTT…TC
Measurement Parameters: aptamer strand: ATP DNA aptamer (quencher-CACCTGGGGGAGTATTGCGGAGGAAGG + anchor), 100 nM annealed; ATP concentration: 500 uM
Give condition met when the value for switch fluorescence ratio is at least 1. Give condition not met when it is less.

# example entries with known answers
Data request: Does the sequence CTGGTCCGGA have recorded switch fluorescence ratio that is 1 or more?
Data returned: condition not met

Data request: Does the sequence TGTGCGACCT have recorded switch fluorescence ratio that is 1 or more?
Data returned: condition met

Data request: Does the sequence GTTAGCCGCT have recorded switch fluorescence ratio that is 1 or more?
Data returned: condition met

Further cases:
Data request: Does the sequence GCATAACAGG have recorded switch fluorescence ratio that is 1 or more?
Data returned: condition met

Data request: Does the sequence TCATCTTTTT have recorded switch fluorescence ratio that is 1 or more?
Data returned: condition not met

Data request: Does the sequence AGCTGTGAC have recorded switch fluorescence ratio that is 1 or more?
Data returned: condition met
